test system: Beet Armyworm (BAW) (Spodoptera exigua); assay: Bioassay on Beet Armyworm (BAW), 128-well diet tray assay; format: in vivo; settings: Spodoptera exigua; Table 5: Prophetic Compounds Subsequently Exemplified; read-out: BAW Rating
METRIC: pest or weed control at 50 µg/cm2

Below, 3 compounds whose answers are already recorded.
Reported pest or weed control at 50 µg/cm2 for O=C(NC1(C(=O)NCC(F)(F)F)CC1)c1ccc(/C=C/C(c2ccc(Cl)c([N+](=O)[O-])c2)C(F)(F)F)cc1C(F)(F)F (stereo not drawn) : what is it?
50 to 100%

Same again, this time with O=C(NC1(C(=O)NCC(F)(F)F)CC1)c1ccc(/C=C/C(c2cc(Br)cc(Br)c2)C(F)(F)F)cc1C(F)(F)F (stereo not drawn)
50 to 100%

Same again, this time with O=C(NC1(C(=O)NCC(F)(F)F)CC1)c1ccc(/C=C/C(c2cccc(OC(F)(F)F)c2)C(F)(F)F)cc1Br (stereo not drawn)
50 to 100%

More entries:
Reported pest or weed control at 50 µg/cm2 for CCNC(=O)C1(NC(=O)c2ccc(/C=C/C(c3cc(Cl)c(Cl)c(Cl)c3)C(F)(F)F)cc2Br)CC1 (stereo not drawn) : what is it?
50 to 100%

Same again, this time with N#Cc1cc(C(/C=C/c2ccc(C(=O)NC3(C(=O)NCC(F)(F)F)CC3)c(Br)c2)C(F)(F)F)ccc1F (stereo not drawn)
50 to 100%

Same again, this time with O=C(NC1(C(=O)NCCC(F)(F)F)CC1)c1ccc(/C=C/C(c2cc(Br)cc(Br)c2)C(F)(F)F)cc1Br (stereo not drawn)
50 to 100%

* * *

Tested on: Beet Armyworm (BAW) (Spodoptera exigua)
Assay: Bioassay on Beet Armyworm (BAW), 128-well diet tray assay
Assay type: in vivo
Settings: Spodoptera exigua; Table 5: Prophetic Compounds Subsequently Exemplified; read-out: BAW Rating
Experimental: Certain molecules disclosed in this document were tested against BAW, CEW and CL using procedures described in the following examples. In the reporting of the results, the “BAW & CEW & CL Rating Table” was used (See Table Section). Bioassays on BAW (Spodoptera exigua) Bioassays on BAW were conducted using a 128-well diet tray assay. […] Percent mortality was recorded for the larvae in each well; activity in the eight wells was then averaged. […]
METRIC: pest or weed control at 50 µg/cm2

GET /values?readout=pest or weed control at 50 µg/cm2&system=Beet Armyworm (BAW) (Spodoptera exigua)&item= O=C(NC1(C(=S)NCC(F)(F)F)CC1)c1ccc(/C=C/C(c2cc(Cl)c(Cl)c(Cl)c2)C(F)(F)F)cc1Cl (stereo not drawn)
50 to 100%

Same again, this time with O=C(NC1(C(=O)NCC(F)(F)F)CC1)c1ccc(/C=C/C(c2ccc(Cl)c([N+](=O)[O-])c2)C(F)(F)F)cc1Br (stereo not drawn)
50 to 100%

Next up:
GET /values?readout=pest or weed control at 50 µg/cm2&system=Beet Armyworm (BAW) (Spodoptera exigua)&item= O=C(NC1(C(=O)NCC(F)(F)F)CC1)c1ccc(/C=C/C(c2ccc(Br)c(Br)c2)C(F)(F)F)cc1C(F)(F)F (stereo not drawn)
50 to 100%
